- TARGET_ENTITY: STK10 (Homo sapiens)
- Construct: endogenous in cells; host or cells: K562 cell lysate
- EXPERIMENT_DESCRIPTION: KAM-matrix competition in K562 lysate
- Type: binding
- TEST_SETTINGS: read-out: RB50 (the source's name)
MEASURED_PROPERTY: IC50
Form entry: enter the amount, then its unit.

Qu. IC50 lookup needed for `N#CCc1ccc(Nc2nc(NCCCN)cc(Nc3cc(C4CC4)[nH]n3)n2)cc1` , thanks.
Ans. 404 nM

----------
- TARGET_ENTITY: BMPR1A (Homo sapiens, UniProt P36894)
- Construct: endogenous in cells
- EXPERIMENT_DESCRIPTION: KAM-matrix competition in K562 lysate
- TEST_SETTINGS: read-out: RB50 (the source's name)
- Method: Supplement 12953_2017_125_MOESM1_ESM.zip/MS_Supp Info.xlsx, sheet "KAM" | column: 10 uM KAM; 1 uM KAM; 0.1 uM KAM; 0.01 uM KAM; 0.001 uM KAM; RB50
MEASURED_PROPERTY: pIC50
// pIC50 here means minus log10 of the molar concentration (mol/L)

Qu. Give its pIC50 value. Item: `N#CCc1ccc(Nc2nc(NCCCN)cc(Nc3cc(C4CC4)[nH]n3)n2)cc1`
Ans. 5.57

----------
- TARGET_ENTITY: UniProt Q9UHY1
- Sequence (Q9UHY1 whole entry): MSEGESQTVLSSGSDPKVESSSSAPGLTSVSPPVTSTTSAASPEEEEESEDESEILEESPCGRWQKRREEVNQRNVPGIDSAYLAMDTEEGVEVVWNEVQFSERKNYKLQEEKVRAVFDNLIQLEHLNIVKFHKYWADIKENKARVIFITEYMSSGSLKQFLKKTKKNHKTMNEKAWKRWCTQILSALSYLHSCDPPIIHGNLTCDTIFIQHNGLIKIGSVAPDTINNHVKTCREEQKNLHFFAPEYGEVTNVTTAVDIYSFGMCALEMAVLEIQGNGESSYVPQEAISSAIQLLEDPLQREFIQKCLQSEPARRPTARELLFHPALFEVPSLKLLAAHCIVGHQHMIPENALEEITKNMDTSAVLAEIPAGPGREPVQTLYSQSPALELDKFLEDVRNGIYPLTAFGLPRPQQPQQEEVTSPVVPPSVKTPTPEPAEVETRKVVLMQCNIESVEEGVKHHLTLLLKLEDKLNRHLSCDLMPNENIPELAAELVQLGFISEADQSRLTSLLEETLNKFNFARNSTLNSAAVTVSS
pIC50: −log10 of the molar value.
MEASURED_PROPERTY: pIC50

Qu. API: value(readout=pIC50, system=UniProt Q9UHY1) for record Cc1ccc(NC(=O)c2ccc(CN3CCN(C)CC3)cc2)cc1Nc1nccc(-c2cccnc2)n1 [Imatinib]
Ans. < 5.00

----------
- TARGET_ENTITY: SPEG (Homo sapiens, UniProt Q15772)
- Construct: endogenous in cells; host or cells: K562
- Sequence (Q15772 whole entry): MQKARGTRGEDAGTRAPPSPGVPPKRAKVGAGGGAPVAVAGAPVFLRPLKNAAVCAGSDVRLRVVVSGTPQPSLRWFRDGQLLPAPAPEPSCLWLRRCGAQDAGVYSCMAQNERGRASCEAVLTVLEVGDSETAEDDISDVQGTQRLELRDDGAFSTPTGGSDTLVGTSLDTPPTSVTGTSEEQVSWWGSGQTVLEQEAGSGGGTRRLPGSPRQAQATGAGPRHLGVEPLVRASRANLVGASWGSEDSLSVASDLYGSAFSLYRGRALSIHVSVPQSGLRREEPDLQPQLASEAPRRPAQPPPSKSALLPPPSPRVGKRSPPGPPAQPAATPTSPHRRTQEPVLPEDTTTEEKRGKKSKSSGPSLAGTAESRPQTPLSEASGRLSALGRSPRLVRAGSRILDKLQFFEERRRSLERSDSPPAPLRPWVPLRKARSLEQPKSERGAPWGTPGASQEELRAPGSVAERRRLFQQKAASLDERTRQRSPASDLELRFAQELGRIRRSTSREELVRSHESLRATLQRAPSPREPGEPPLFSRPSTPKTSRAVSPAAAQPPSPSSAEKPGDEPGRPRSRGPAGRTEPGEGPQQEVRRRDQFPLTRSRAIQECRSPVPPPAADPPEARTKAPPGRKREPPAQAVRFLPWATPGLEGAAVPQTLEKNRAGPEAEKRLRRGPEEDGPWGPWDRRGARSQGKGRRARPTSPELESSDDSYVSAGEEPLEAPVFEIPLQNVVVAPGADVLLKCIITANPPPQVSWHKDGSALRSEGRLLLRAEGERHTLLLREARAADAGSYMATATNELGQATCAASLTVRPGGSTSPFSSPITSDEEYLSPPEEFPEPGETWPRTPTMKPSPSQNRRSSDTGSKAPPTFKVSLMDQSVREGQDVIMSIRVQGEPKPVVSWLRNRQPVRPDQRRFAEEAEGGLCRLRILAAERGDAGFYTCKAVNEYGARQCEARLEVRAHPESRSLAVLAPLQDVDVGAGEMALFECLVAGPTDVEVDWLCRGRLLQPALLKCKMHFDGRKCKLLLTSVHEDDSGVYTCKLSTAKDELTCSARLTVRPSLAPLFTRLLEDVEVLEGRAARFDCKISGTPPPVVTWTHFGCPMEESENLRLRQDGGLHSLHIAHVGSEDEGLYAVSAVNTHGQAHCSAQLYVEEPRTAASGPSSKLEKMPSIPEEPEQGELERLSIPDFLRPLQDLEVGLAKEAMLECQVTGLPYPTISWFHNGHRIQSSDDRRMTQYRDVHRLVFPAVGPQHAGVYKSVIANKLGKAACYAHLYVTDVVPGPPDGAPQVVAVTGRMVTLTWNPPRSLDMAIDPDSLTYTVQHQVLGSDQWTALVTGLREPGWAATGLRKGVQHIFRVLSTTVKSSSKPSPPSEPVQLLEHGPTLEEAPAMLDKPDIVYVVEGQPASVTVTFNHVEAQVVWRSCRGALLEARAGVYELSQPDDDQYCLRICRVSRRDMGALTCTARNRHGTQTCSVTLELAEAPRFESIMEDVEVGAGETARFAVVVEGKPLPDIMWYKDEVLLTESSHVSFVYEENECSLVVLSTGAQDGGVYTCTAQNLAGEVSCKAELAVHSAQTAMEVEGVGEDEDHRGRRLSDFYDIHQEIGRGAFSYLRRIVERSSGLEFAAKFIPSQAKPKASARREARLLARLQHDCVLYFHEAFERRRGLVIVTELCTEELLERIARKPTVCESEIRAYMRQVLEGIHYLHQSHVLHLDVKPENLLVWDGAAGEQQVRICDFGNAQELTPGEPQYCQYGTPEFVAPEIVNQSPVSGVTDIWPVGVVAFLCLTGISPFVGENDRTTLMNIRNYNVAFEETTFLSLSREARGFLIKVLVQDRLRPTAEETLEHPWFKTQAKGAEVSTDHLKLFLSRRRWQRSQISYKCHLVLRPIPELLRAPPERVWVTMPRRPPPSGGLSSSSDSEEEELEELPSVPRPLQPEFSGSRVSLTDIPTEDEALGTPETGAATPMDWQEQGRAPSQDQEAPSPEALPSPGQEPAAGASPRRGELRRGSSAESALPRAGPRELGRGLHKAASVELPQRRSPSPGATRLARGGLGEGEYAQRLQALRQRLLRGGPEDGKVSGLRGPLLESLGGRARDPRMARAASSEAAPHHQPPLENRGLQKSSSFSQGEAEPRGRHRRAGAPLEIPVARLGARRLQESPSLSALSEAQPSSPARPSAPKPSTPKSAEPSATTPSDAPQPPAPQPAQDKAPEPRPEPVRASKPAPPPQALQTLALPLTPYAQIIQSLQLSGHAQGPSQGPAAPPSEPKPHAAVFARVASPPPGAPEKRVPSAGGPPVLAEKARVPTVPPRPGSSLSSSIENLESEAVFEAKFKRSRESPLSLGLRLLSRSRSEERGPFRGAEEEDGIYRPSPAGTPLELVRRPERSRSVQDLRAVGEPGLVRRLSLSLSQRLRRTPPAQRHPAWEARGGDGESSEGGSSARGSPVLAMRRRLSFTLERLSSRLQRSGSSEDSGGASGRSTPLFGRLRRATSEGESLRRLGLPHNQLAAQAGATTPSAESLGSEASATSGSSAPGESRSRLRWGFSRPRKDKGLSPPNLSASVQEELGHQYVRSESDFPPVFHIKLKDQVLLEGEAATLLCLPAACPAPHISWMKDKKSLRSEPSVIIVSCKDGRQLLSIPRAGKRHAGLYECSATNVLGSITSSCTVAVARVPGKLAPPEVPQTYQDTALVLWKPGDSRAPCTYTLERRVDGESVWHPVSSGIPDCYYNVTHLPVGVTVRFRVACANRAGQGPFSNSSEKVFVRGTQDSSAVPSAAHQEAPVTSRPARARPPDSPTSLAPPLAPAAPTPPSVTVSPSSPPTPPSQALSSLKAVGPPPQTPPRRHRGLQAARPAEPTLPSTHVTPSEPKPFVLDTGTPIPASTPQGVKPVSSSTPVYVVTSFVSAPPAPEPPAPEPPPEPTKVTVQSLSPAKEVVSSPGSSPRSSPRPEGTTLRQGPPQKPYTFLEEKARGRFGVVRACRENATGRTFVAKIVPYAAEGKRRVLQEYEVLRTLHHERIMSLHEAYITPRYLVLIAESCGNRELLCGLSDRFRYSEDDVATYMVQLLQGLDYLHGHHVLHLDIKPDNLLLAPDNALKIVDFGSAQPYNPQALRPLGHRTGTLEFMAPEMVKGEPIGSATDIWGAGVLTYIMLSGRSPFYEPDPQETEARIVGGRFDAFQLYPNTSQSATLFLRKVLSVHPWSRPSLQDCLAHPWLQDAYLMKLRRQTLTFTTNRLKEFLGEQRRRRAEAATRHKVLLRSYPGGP
- EXPERIMENT_DESCRIPTION: Dasatinib-matrix competition in K562 lysate
- TEST_SETTINGS: residual binding 50 value; read-out: RB50 (the source's name)
MEASURED_PROPERTY: IC50

Qu. Which IC50 value belongs to `Cc1nc(Nc2ncc(C(=O)Nc3c(C)cccc3Cl)s2)cc(N2CCN(CCO)CC2)n1` ?
Ans. > 10 µM

----------
- TARGET_ENTITY: UniProtKB Q96QS6
- Sequence (Q96QS6 whole entry): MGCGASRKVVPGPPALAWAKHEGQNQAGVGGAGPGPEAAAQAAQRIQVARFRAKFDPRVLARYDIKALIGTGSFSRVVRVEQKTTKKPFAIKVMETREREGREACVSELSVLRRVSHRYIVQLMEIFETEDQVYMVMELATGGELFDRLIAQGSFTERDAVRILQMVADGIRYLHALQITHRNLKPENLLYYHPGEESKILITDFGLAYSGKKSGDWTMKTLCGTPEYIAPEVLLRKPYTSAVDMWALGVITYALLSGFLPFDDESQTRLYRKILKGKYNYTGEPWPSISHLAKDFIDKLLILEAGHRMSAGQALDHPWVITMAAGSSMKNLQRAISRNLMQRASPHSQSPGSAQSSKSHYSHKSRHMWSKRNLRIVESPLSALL
MEASURED_PROPERTY: IC50

Qu. Param readout = IC50; param system = UniProtKB Q96QS6; param query = `Cc1ccc(NC(=O)c2ccc(CN3CCN(C)CC3)cc2)cc1Nc1nccc(-c2cccnc2)n1` ; response: value
Ans. > 10 µM

----------
- TARGET_ENTITY: PAK4 (Homo sapiens)
- Construct: endogenous in cells
- Sequence (O96013 whole entry): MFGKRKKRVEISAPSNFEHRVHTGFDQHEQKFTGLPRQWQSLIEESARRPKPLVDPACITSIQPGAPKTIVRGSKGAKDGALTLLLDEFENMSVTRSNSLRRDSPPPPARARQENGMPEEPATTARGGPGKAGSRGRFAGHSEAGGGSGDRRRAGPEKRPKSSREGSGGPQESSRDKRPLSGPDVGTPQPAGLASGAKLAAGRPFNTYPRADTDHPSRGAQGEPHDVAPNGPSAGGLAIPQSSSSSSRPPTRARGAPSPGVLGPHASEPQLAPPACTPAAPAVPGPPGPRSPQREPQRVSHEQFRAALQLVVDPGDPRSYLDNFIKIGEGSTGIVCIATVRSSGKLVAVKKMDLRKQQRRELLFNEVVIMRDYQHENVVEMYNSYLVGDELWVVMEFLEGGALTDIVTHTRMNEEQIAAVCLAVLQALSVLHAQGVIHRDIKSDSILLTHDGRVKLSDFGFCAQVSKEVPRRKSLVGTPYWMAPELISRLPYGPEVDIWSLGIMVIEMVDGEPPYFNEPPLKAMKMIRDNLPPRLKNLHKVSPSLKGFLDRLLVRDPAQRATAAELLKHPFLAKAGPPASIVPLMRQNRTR
- EXPERIMENT_DESCRIPTION: KAM-matrix competition in K562 lysate
- TEST_SETTINGS: read-out: RB50 (the source's name)
MEASURED_PROPERTY: pIC50
Friendly reminder that pIC50 comes from taking -log10 of the concentration in mol/L.

Qu. # pIC50 lookup, item N#CCc1ccc(Nc2nc(NCCCN)cc(Nc3cc(C4CC4)[nH]n3)n2)cc1 [KAM]
Ans. 6.28

----------
- TARGET_ENTITY: UniProt:Q96KG9
- EXPERIMENT_DESCRIPTION: biochemical
MEASURED_PROPERTY: IC50

Qu. Need IC50, item `Cc1ccc(NC(=O)c2ccc(CN3CCN(C)CC3)cc2)cc1Nc1nccc(-c2cccnc2)n1`
Ans. > 10 µM
